System: MOLT-4 leukemia
Assay: NCI tumour cell line growth inhibition, 48 h
For each record, write down the corresponding GI50.

Here is how some compounds turned out for GI50.
{"COMPOUND": "COc1c(O)cc2oc3cc(O)c(CC=C(C)C)c(O)c3c(=O)c2c1C/C=C(\\C)CCC=C(C)C", "GI50": "6.11 µM"}
{"COMPOUND": "CCOC(=O)c1sc2ncn(Cc3cccc(Cl)c3)c(=O)c2c1C", "GI50": "13.2 µM"}
{"COMPOUND": "Cn1cc(-c2nc(-c3c[nH]c4ncccc34)cs2)c2cc(Cl)ccc21", "GI50": "4.27 µM"}
{"COMPOUND": "CC(C)(C)[Si](C)(C)OC1[C@@H](O[Si](C)(C)C(C)(C)C)[C@@H](CNC(=O)NC(=O)NC(=O)CI)O[C@H]1n1cnc2c(NC(=O)Nc3ccccc3)ncnc21 (some centres undefined)", "GI50": "0.718 µM"}
{"COMPOUND": "OCc1ccc(N(Cc2ccc(F)cc2)C2CCC2)cc1Cl", "GI50": "15.7 µM"}

Kindly give each listed record's GI50.
1. C=C(CN1CCc2ccccc2C1)c1ccc(/C=C/C(=O)Nc2ccccc2N)cc1
2. O=C(Nc1cccc(NS(=O)(=O)c2ccc(F)cc2)c1)c1ccc(-c2ccccc2)cc1
3. COc1cccc(-c2nc(-c3ccc(NS(=O)(=O)c4ccccc4)cc3)[nH]c2-c2ccnc(Br)c2)c1

Result block:
3.18 µM
3.05 µM
2.74 µM

Hey, MOLT-4 leukemia data for Clc1ccc(N2COOC3(OOC2)C2CC4CC(C2)CC3C4)cc1 : GI50 came out at 3.82 µM

----------
For each record, write down the corresponding TGI.
Test system: DU-145 prostate
Assay: NCI tumour cell line growth inhibition, 48 h

{"COMPOUND": "COc1ccc2c(CN3CCC(CO)CC3)cc3cc4c(cc3c2c1)OCO4", "TGI": "12.6 µM"}
{"COMPOUND": "CCOC(=O)N(C)CCC1CC=CC(=O)C1c1cccc(OC)c1OC (stereo not given)", "TGI": "44.4 µM"}
{"COMPOUND": "CC(SC(=S)N1CCCC1)C(=O)Nc1nnc(-c2ccc(Cl)cc2)o1 (stereo not given)", "TGI": "> 100 µM"}
{"COMPOUND": "CS(=O)(=O)c1ccc(Oc2nccc(-c3c(-c4ccc(F)cc4)ncn3C3CCNCC3)n2)cc1", "TGI": "> 25 µM"}
{"COMPOUND": "O=c1cnn(C/C=C/CP(=O)(O)O)c(=O)[nH]1", "TGI": "> 100 µM"}

Kindly give each listed record's TGI.
1. O=C(/C=C/c1ccsc1)c1cccs1
2. CC1=C(C(=O)Nc2ccc(F)c(Cl)c2)C(c2cccc(O)c2)NC(=S)N1 (stereo not given)
3. Cc1ccc(C)c(-n2c(-c3ccc(Br)cc3)csc2=NC(=O)c2ccccc2F)c1
4. [N-]=[N+]=NC1(c2ccccc2)C(=O)c2cccc3c4ccccc4n(c23)C1=O (stereo not given)

Result block:
> 100 µM
> 50 µM
> 100 µM
> 100 µM

For reference, reported TGI for Cc1nc(C)c(N2CCN(C(=O)NC(CCC(=O)O)C(=O)O)CC2)c(=O)[nH]1 (stereo not given) stands at > 100 µM

----------
Tested on: U251 CNS
Assay: NCI tumour cell line growth inhibition, 48 h
MEASURED_ENDPOINT: TGI

{"COMPOUND": "CCCC[P+](CCCC)(CCCC)C(C(=O)OC)C(C(=O)OC)=C1SC(C(=O)OC)=C(C(=O)OC)S1 (centres undefined)", "TGI": "> 100 µM"}
{"COMPOUND": "O=C(c1ccccc1)c1ccc2cccc(O)c2n1", "TGI": "68.3 µM"}
{"COMPOUND": "CCCCCCC(O)C/C=C/CCCCCC/C(C(=O)OC)=C(/O)C(=O)OCC (centres undefined)", "TGI": "> 100 µM"}
{"COMPOUND": "CC1(c2ccccc2)CC12C(=O)NC(=O)NC2=O (centres undefined)", "TGI": "> 100 µM"}
{"COMPOUND": "Cc1cc(Cl)ccc1NC(=O)/C(Cc1nc2ccc(C(=O)c3ccccc3)cc2[nH]c1=O)=N/NC(=O)c1ccncc1", "TGI": "> 100 µM"}

Kindly give each listed record's TGI.
1. CCOC(=O)c1csc(NC(=O)CN2CCCCC2)n1
2. COc1ccc(/C=C/C(=O)c2cccc(C(=O)/C=C/c3ccc(OC)c(OC)c3)n2)cc1OC
3. COC(=O)C/C(C)=C/[C@@H](O)[C@H]1O[C@@H]2CC/C(Cl)=C/C/C=C(/C)[C@H](OC(C)=O)CC(=O)O[C@@H]1C2
4. COc1ccc(/C=C/C(=O)/C=C(/C=C/c2ccc(OC)c(OC)c2)OB(F)F)cc1OC
5. CC(C)SC1SCC2C(=O)N(C)C3(CC3C)C(=O)OCC(NC(=O)c3nc4ccccc4cc3O)C(=O)NC(C)C(=O)N(C)C1C(=O)N(C)C1(CC1C)C(=O)OCC(NC(=O)c1nc3ccccc3cc1O)C(=O)NC(C)C(=O)N2C (centres undefined)

Result block:
["> 100 µM", "> 55.7 µM", "13.2 µM", "2.31 µM", "< 0.0001 µM"]

Kindly give each listed record's TGI.
1. O=C(O)C(Cc1ccccc1-c1ccccc1)C(=O)O
2. N/C(=N\Nc1cccc(Cl)c1)c1cccnc1

Result block:
1: > 100 µM; 2: > 100 µM

Kindly give each listed record's TGI.
1. O=S(=O)(O)c1ccc(N=Nc2c(O)ccc3ccccc23)cc1
2. COc1ccc(/C=C/C(=N/NC(=O)N/N=C(/C=C/c2ccc(OC)cc2)C(C)C)C(C)C)cc1
3. C=C1C(=O)OC2C1C(OC(=O)/C(C)=C/C)CC(O)(CCl)C1C(OC(C)=O)C=C(C)C21O (centres undefined)
4. CCOC(=O)Nn1cnnc1Cc1ccccc1
5. Cc1ccc(/C(O)=C/c2nc3ccccc3nc2NC23CC4CC(CC(C4)C2)C3)cc1
6. CC[N+](C)(C)c1ccc(C(=C2C=CC(=[N+](C)C)C=C2)c2ccc(N(C)C)cc2)cc1

Result block:
1. > 100 µM
2. > 100 µM
3. 41.2 µM
4. > 100 µM
5. > 10 µM
6. 14 µM

For reference, reported TGI for COc1cccc2c(Nc3ccc(C(=O)NCCNCCO)cc3)cc(-c3ccccc3)nc12 stands at 24.9 µM

----------
Tested on: SN12C renal
Test: NCI tumour cell line growth inhibition, 48 h
For each record, write down the corresponding TGI.

Here is how some compounds turned out for TGI.
{"COMPOUND": "O=[N+]([O-])c1ccc2c(c1)OCCOCCOc1ccc([N+](=O)[O-])cc1OCCOCCO2", "TGI": "> 100 µM"}
{"COMPOUND": "OCc1ccc(N(Cc2ccc(F)cc2)C2CCC2)cc1Cl", "TGI": "24.4 µM"}
{"COMPOUND": "CCN(CC)c1ccc2[nH]c3c(C(N)=O)cc(=O)c(=O)c=3oc2c1", "TGI": "> 100 µM"}

Kindly give each listed record's TGI.
1. CC(C)(C)[Si](C)(C)OC1[C@@H](O[Si](C)(C)C(C)(C)C)[C@@H](CNC(=O)NC(=O)NC(=O)CI)O[C@H]1n1cnc2c(NC(=O)Nc3ccccc3)ncnc21 (stereo not given in full)
2. O=C1CCCSCCCC(=O)CCCSCCC1
3. COc1cc2c(cc1C)NC(=O)/C2=C\c1cccnc1
4. CCOC(=O)NC(Nc1cccc(F)c1)(C(F)(F)F)C(F)(F)F
5. Cc1nc2ccc(S(=O)(=O)Nc3ccccn3)cc2c(=O)n1NS(=O)(=O)c1ccccn1

Result block:
["15.6 µM", "> 100 µM", "37.8 µM", "> 100 µM", "> 100 µM"]

----------
System: OVCAR-8 ovarian
Assay: NCI tumour cell line growth inhibition, 48 h
Where a SMILES comes first, the peptide text is derived from it. The star is where a group is joined. Boc = CC(C)(C)OC(=O)*
MEASURED_ENDPOINT: TGI

Here is how some compounds turned out for TGI.
{"COMPOUND": "Cc1cc2c(c(C=Nc3ccc(N(C)C)cc3)c1)OC1(C=C2)Oc2ccccc2C(=O)N1C (centres undefined)", "TARGET_OF_ASSAY": "OVCAR-8 ovarian", "OBSERVED_RESULT": "42.9 µM"}
{"COMPOUND": "CC1CC/C(=C\\c2ccc(Cl)cc2)C(=O)/C1=C\\c1ccc(Cl)cc1 (centres undefined)", "TARGET_OF_ASSAY": "OVCAR-8 ovarian", "OBSERVED_RESULT": "> 100 µM"}
{"COMPOUND": "N#C[C@]12CC3(CC[C@H]1CC1(C2)OCCO1)OCCO3", "TARGET_OF_ASSAY": "OVCAR-8 ovarian", "OBSERVED_RESULT": "> 100 µM"}
{"COMPOUND": "COc1cccc(/C=C\\c2cc(OC)c(OC)c(OC)c2)c1", "TARGET_OF_ASSAY": "OVCAR-8 ovarian", "OBSERVED_RESULT": "> 100 µM"}
{"COMPOUND": "CCC(C)C1=C(O)[N+]2([O-])Oc3ccc(-c4c(O)c(O)c(-c5ccc(O)cc5)c(OC(C)=O)c4OC(C)=O)cc3OC2(C(C)CC)C(=O)N1O (centres undefined)", "TARGET_OF_ASSAY": "OVCAR-8 ovarian", "OBSERVED_RESULT": "> 50 µM"}
{"COMPOUND": "COc1ccc2c(c1)nc1n2C(c2c(F)cccc2F)SC1 (centres undefined)", "TARGET_OF_ASSAY": "OVCAR-8 ovarian", "OBSERVED_RESULT": "> 100 µM"}
{"COMPOUND": "COCC1N=C(c2ccc(OC)c(OCc3ccccc3)c2OC)O[C@H]1c1ccccc1 (some centres undefined)", "TARGET_OF_ASSAY": "OVCAR-8 ovarian", "OBSERVED_RESULT": "> 100 µM"}
{"COMPOUND": "CCOC(=O)c1sc2ncn(Cc3cccc(Cl)c3)c(=O)c2c1C", "TARGET_OF_ASSAY": "OVCAR-8 ovarian", "OBSERVED_RESULT": "28.4 µM"}

Kindly give each listed record's TGI.
1. O=[N+]([O-])c1ccc(OCCNc2cccc3ccccc23)cc1
2. COc1ccc(-c2cc(-c3ccccc3)c3c(n2)-c2ccccc2NC(=O)C3)cc1
3. O=C1C(Cl)=C(Oc2ccccc2)C(=O)c2ccccc21
4. CC12CC(=O)OC(Cc3ccccc31)O2 (centres undefined)
5. COC(=O)/C=C/COCC1C2CCC(=O)C21 (centres undefined)

Result block:
1. > 100 µM
2. 30.1 µM
3. 36.8 µM
4. > 100 µM
5. > 100 µM

Kindly give each listed record's TGI.
1. Cc1ccc(C)c(-n2c(-c3ccc(Br)cc3)csc2=NC(=O)c2ccccc2F)c1
2. COC(=O)C(Cc1c[nH]c2ccccc12)NC(=O)C(Cc1c[nH]c2ccccc12)NC(=O)C(Cc1c[nH]c2ccccc12)NC(=O)C(Cc1c[nH]c2ccccc12)NC(=O)C(Cc1c[nH]c2ccccc12)NC(=O)OC(C)(C)C (centres undefined) (Boc-WWWWW-OMe; configuration not given here)

Result block:
1. > 100 µM
2. > 100 µM

Kindly give each listed record's TGI.
1. COc1ccc(/C=C/C(=N/NC(=O)N/N=C(/C=C/c2ccc(OC)cc2)C(C)C)C(C)C)cc1
2. CCOC(=O)CCN1C(=O)c2ccc(NC(=O)C(=O)O)cc2S1(=O)=O

Result block:
1. > 100 µM
2. > 100 µM

Kindly give each listed record's TGI.
1. COC(=O)C1Cc2c(n(C)c3ccccc23)C(c2ccccc2)N1 (centres undefined)
2. Clc1ccc(N2COOC3(OOC2)C2CC4CC(C2)CC3C4)cc1

Result block:
> 100 µM
> 100 µM

src = PubChem BioAssay (NCI)
